STUDY_CONDITIONS: Ebola virus entry assay, reporter ratio channel; Channel type: primary
The source made the active and inactive calls. The rule behind the calls is not given here.
Pick one: 1.0 (active), 0.0 (inactive)

stdin: What did the test return for `CC1(C)[C@@H](OC(=O)CCC(=O)O)CC[C@]2(C)[C@H]3C(=O)C=C4[C@@H]5C[C@@](C)(C(=O)O)CC[C@]5(C)CC[C@@]4(C)[C@]3(C)CC[C@@H]12` ?
stdout: 0.0

stdin: Give the logged outcome of this assay for the following compound: CC1CC(OC(=O)C(O)c2ccccc2)CC(C)(C)N1C (stereo not drawn)
stdout: 0.0

stdin: Call for entry CC(Cc1cccc(C(F)(F)F)c1)NCCOC(=O)c1ccccc1 (stereo not drawn) :
stdout: 1.0

stdin: Which outcome was assigned to O=C1C(CCS(=O)c2ccccc2)C(=O)N(c2ccccc2)N1c1ccccc1 (stereo not drawn) in this test?
stdout: 0.0

stdin: Tell me the recorded outcome of this test for `CN(C)CCn1nnnc1SCC1=C(C(=O)O)N2C(=O)[C@@H](NC(=O)Cc3csc(N)n3)[C@H]2SC1` .
stdout: 1.0

stdin: Outcome? `COc1cccc2c1C(=O)c1c(O)c3c(c(O)c1C2=O)C[C@@](O)(C(=O)CO)C[C@@H]3O[C@H]1C[C@H](N)[C@H](O[C@@H]2CCCCO2)[C@H](C)O1`
stdout: 0.0

stdin: Recorded call for CC1CC(=O)NN=C1c1ccc(NCC(C)(C)NCC(O)COc2cc(Cl)ccc2C#N)cc1 (stereo not drawn) ?
stdout: 0.0

stdin: Recorded test outcome, item `CCOC(=O)[C@H](CCc1ccccc1)N[C@H]1CCc2ccccc2N(CC(=O)O)C1=O`
stdout: 1.0
